Entries and their growth inhibition values follow.
- METHOD NOTES: NCI Yeast Anticancer Drug Screen. Data for the bub3 strain (AID 167)
- CONDITION NOTES: S. cerevisiae bub3 mutant strain, at 50.0 µM (retest, dose inferred, filed as 5.0), hits give high values
- Experimental: Growth inhibition of yeast strains with defined genetic alterations is measured as a screen for potential anti-cancer activity. Selected strains with alterations in DNA damage repair or cell cycle control were exposed to compounds and growth inhibition was measured relative to vehicle treated controls. The strain used in this assay is bub3
The panel holds about 79,000 compounds, 15% with a hit somewhere; the sample as a whole holds those more often.
QUANTITY: growth inhibition (%)

MOLECULE | UNIT ANNOTATION | OBSERVED MEASUREMENT
O=CC(O)C(O)C(O)C(O)C(=O)NCCCCCCCCCCCCNC(=O)C(O)C(O)C(O)C(O)C=O (centres undefined) | % | 10
c1ccc([P+](c2ccccc2)(c2ccccc2)C2c3ccccc3-c3ccccc32)cc1 | % | 99
CCCCCCCCCCCCCCCCOS(=O)(=O)O | % | 100
O=[N+]([O-])/C(Cl)=C(/C(Cl)=C(Cl)Cl)N1CCCCC1 | % | 34
N=C(N)SCc1cc(Cl)cc(Cl)c1O | % | -19
CC1=CC(c2c(O)cc(O)c(C(=O)CCc3ccccc3)c2O)C(C(C)C)CC1 (centres undefined) | % | 96
CCc1cc2c(c3[nH]ccc13)[C@@H](C)C[C@H]2C | % | 98
COc1ccc(Cc2ccc3c(C)cc(Cl)nc3c2)cc1 | % | 78
COc1ccc(C2C3=C(CCCC3=O)Oc3cc4c(cc32)OCO4)c(OC)c1 (centres undefined) | % | 94
CCOC(=O)C(Br)c1nc2ccccc2[nH]c1=O (centres undefined) | % | 86
O=C1c2ccc(O)cc2C(=O)c2c1ccc(O)c2O | % | 94
COc1ccc(Oc2cc3c[n+](C)ccc3cc2OC)cc1 | % | 90
COC(=O)N(C[C@@H]1C=CCCC1)c1ccccc1I | % | 74
NC(=S)n1nc(-c2ccccc2)c(N=Nc2ccccc2Cl)c1-c1ccccc1 | % | 92
Nc1nc(=Nc2ccccc2)ss1 | % | 100
CCCCC(O)(c1ccccc1)C(O)(c1ccccc1)c1c(F)c(F)c(F)c(F)c1F (centres undefined) | % | 96
N=C1c2ccccc2-c2ccccc21 | % | 24
Nc1[nH]cnc(=S)c1NC=O | % | -3
CC1OC(Oc2c(-c3ccc(O)c(O)c3O)oc3cc(O)ccc3c2=O)C(O)C(O)C1O (centres undefined) | % | -3
CC1=CCCc2c1cc1ccc3cccc4ccc2c1c34 | % | -10
O=C(/C=C/c1cccnc1)c1cc(Cl)ccc1O | % | 71
CC1(c2cccs2)C(C#N)(C#N)C1(C#N)C#N | % | 36
CCC(CC)N(CCNc1cc(OC)cc2cccnc12)CC(C)C | % | 11
c1csc(-c2nccc3c2[nH]c2ccccc23)c1 | % | 97
